# Tested on: U251 CNS
# test details: NCI-60 one-dose screen, 48 h (100 = growth as untreated, 0 = no growth, -100 = all killed)
# measurement parameters: 10 µM unless noted
This is part of a sample that, as a whole, favours compounds with a hit. Of some 83,000 tested, about 20% had one in any assay.
In this scheme, each record receives a class according to its growth; the ranges are category 1 (below 30%), category 2 (30% to below 70%), category 3 (70% or more)

Lab note: sort CNC(=O)c1cc(COc2nnc(Nc3ccc(Cl)cc3)c3ccoc23)ccn1 into the matching growth band. category 1

Repeat with CS(=O)(=O)N1CCN(Cc2cc3nc(-c4cccc5[nH]ncc45)nc(N4CCOCC4)c3s2)CC1 category 2

Try this compound next: CCCCCc1ccc(C)cc1OC(=O)CCl category 3

Check C[C@@H]1COC(Nc2ccc3ncnc(Nc4ccc(OCc5nccs5)c(Cl)c4)c3c2)=N1 too. category 2

Thanks! And COc1ccc(OC)c(NC2=C(SCCc3ccccc3)C(=O)c3ccccc3C2=O)c1 ? category 3

Lookup CC1(COc2ccc3c(c2)ncn3-c2ccc3cccc(N4CCC(N)CC4)c3n2)COC1 category 1

// repeat for Cc1ccccc1N1C(c2ccccc2)=NNC12C=CC(=O)C=C2Cl (stereo not given) and report category 3

For Cc1nc2ccc(-n3ncc(C(=O)c4cc5ccccc5[nH]4)c3N)cc2[nH]1 then? category 1
